Data provenance is patent US20260176289A1.

# EXPERIMENTAL_TARGET: KRAS-G12V (Homo sapiens, UniProt P01116, G12V)
# Sequence (P01116 with tags, fused parts or gaps isoform P01116-2 G12V): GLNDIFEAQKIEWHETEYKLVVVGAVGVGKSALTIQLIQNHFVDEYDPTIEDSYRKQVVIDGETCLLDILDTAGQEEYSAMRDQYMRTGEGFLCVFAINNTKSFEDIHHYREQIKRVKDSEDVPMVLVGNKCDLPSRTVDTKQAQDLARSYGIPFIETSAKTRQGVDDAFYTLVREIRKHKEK
# ASSAY_NOTES: SOS-catalyzed nucleotide exchange assay (Procedure A, TR-FRET), KRAS-G12V
# Assay type: biochemical
# EXPERIMENTAL_SETUP: KRAS G12V GNE IC50, nucleotide exchange
pIC50: −log10 of the molar value.
OBSERVED_PROPERTY: pIC50

# CHEM_SMILES, DATA_VALUE
measured = [
    ("Cc1cc2[nH]ncc2c(-c2nccc3c2[se]c2nc(OC[C@@]45CCCN4C[C@H](F)C5)nc(N4CCOC[C@@](C)(O)C4)c23)c1C(F)(F)F", 7.59),
    ("C[C@@]1(O)COCCN(c2nc(OC[C@@]34CCCN3C[C@H](F)C4)nc3sc4c(-c5c6c(cc7[nH]ncc57)CCC6=C(F)F)nccc4c23)C1", 7.21),
    ("C[C@@]1(O)COCCN(c2nc(OC[C@@]34CCCN3C[C@H](F)C4)nc3[se]c4c(-c5c(C6CC6)c(Cl)cc6[nH]ncc56)nccc4c23)C1", 7.57),
]

----------
# Test system: MKN-1 cells
# ASSAY_NOTES: Cellular phospho-ERK assay, MKN-1 cells (amplified wild-type KRAS)
# Assay type: cell-based
# EXPERIMENTAL_SETUP: Homo sapiens, 2 hours compound incubation, read-out: MKN1 pERK IC50
pIC50: −log10 of the molar value.
OBSERVED_PROPERTY: pIC50

# MOLECULE, OBSERVED_PROPERTY, DATA_VALUE
measured = [
    ("C#Cc1cccc2cc3[nH]ncc3c(-c3nccc4c3sc3nc(OC[C@@]56CCCN5C[C@H](F)C6)nc(N5CCOC[C@@](C)(O)C5)c34)c12", "pIC50", 7.62),
    ("[2H]C1([2H])CC[C@]2(COc3nc(N4CCOC[C@@](C)(O)C4)c4c(n3)sc3c(-c5c(C6CC6)c(Cl)cc6[nH]ncc56)nccc34)N1C[C@H](F)C2([2H])[2H]", "pIC50", 7.70),
    ("Cc1cc2[nH]ncc2c(-c2nccc3c2sc2nc(OC[C@@]45CCCN4C[C@H](F)C5)nc(N4CCOC[C@]5(CCO5)C4)c23)c1C(F)(F)F", "pIC50", 6.92),
    ("CO[C@H]1CN2CCC[C@@]2(COc2nc(N3CCOC[C@@](C)(O)C3)c3c(n2)sc2c(-c4c(C5CC5)c(Cl)cc5[nH]ncc45)nccc23)C1", "pIC50", 7.28),
    ("C[C@@]1(O)COCCN(c2nc(OC[C@@]34CCCN3C/C(=C\\F)C4)nc3sc4c(-c5c(C6(F)CC6)c(Cl)cc6[nH]ncc56)nccc4c23)C1", "pIC50", 7.73),
    ("Cc1cc2[nH]ncc2c(-c2nccc3c2sc2nc(OC[C@@]45CCCN4C[C@H](F)C5)nc(N4CCOCC5(CCCO5)C4)c23)c1C(F)(F)F (stereo partly drawn)", "pIC50", 6.29),
]

----------
# EXPERIMENTAL_TARGET: KRAS-WT (Homo sapiens)
# Sequence (P01116 with tags, fused parts or gaps isoform P01116-2): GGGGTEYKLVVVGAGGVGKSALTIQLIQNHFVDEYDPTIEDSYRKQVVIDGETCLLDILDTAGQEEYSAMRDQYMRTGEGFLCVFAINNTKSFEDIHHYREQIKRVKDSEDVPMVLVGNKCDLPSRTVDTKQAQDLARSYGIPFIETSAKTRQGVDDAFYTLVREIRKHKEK
# ASSAY_NOTES: SOS-catalyzed nucleotide exchange assay (Procedure A, TR-FRET), KRAS-WT
# Type: biochemical
# EXPERIMENTAL_SETUP: nucleotide exchange, read-out: KRAS WT GNE IC50
pIC50: −log10 of the molar value.
Item-by-item account of pIC50

# MOLECULE, pIC50
records = [
    ("Cc1cc2[nH]ncc2c(-c2nccc3c2sc2nc(OC[C@@]45CCCN4C[C@H](F)C5)nc(NCC4COC4)c23)c1C(F)(F)F [Ex-186]", 6.01),
    ("C[C@@]1(O)COCCN(c2nc(OC[C@@]34CCCN3C[C@H](F)C4)nc3sc4c(-c5c6c(cc7[nH]ncc57)C5CC5C6)nccc4c23)C1 (stereo partly drawn) [Ex-91]", 6.89),
    ("C#Cc1cccc2[nH]nc(-c3nccc4c3sc3nc(OC[C@@]56CCCN5C[C@H](F)C6)nc(N5CCOC[C@@](C)(O)C5)c34)c12 [Ex-159]", 6.18),
    ("Cc1cc2[nH]ncc2c(-c2ncnc3c2sc2nc(OC[C@@]45CCCN4C[C@H](F)C5)nc(N4CCOC[C@@](C)(O)C4)c23)c1C(F)(F)F [Ex-276]", 6.10),
    ("C#Cc1c(F)ccc2cc3[nH]ncc3c(-c3nccc4c5c(N6CCOC[C@@](C)(O)C6)nc(OC[C@@]67CCCN6C[C@H](F)C7)nc5n(C)c34)c12 [Ex-25]", 6.87),
    ("C[C@@]1(O)COCCN(c2nc(OC[C@@]34CCCN3C[C@H](F)C4)nc3sc4c(-c5c6c(cc7[nH]ncc57)CC=C6C5CC5)nccc4c23)C1 [Ex-105]", 7.14),
]
